These data points were gathered from patent US5523406A.

protocol-description: in vitro
Format: cell-based
measurement-conditions: human, cem cells

>  <molecule>
CCCCN1C[C@](C)(O)[C@@H](O)[C@H](O)[C@H]1CO [XVIA]

>  <cytotoxicity at 216 h (%)>
20

$$$$
>  <molecule>
CC1(O)CN(CCCc2ccccc2)C(CO)C(O)C1O (centres unmarked) [XVIB]

>  <cytotoxicity at 216 h (%)>
40

$$$$
